- ASSAY_TARGET: T1, Lsb1, P53281
- T1 sequence (P53281 45-122, looked up): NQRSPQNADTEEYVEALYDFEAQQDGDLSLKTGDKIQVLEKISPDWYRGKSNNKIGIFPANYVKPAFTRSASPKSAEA
- PROCEDURE_DETAILS: SPOT array
- ASSAY_SETUP: median of control spots 388
# SPOT intensity per record follows
VALUE_TYPE: SPOT intensity

            binder  test_value
0  RPVPRRPSQPLNTLS          94
1  RKQRSIPLSPIVPES           2
2  IFLRISINFPLNYPN          71
3  KFIPSRPAPKPPSSA         692
4  LFMKGTPEFPKSGFS          67
5  MARRRLPDRPPNGIG         587
6  KKIRLIFTYPSTVGR          50
